# systemUnderTest: Phospholipid hydroperoxide glutathione peroxidase GPX4 (Homo sapiens) (UniProt P36969)
# Sequence (P36969 whole entry, looked up): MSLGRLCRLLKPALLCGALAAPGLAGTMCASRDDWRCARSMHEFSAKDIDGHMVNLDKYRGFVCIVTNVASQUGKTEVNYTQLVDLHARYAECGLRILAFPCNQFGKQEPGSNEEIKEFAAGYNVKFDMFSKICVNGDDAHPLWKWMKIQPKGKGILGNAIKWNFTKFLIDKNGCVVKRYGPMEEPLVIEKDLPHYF
# testDescription: Primary qHTS Assay for Inhibitors of Recombinant Selenoprotein Glutathione Peroxidase 4 (GPX4) (AID 1845192); also: nearly all actives have a fitted effect of over 65% in size
# runParameters: recombinant GPX4, GR-coupled NADPH fluorescence, 15 min; series mostly up to 50 µM
Results filed as inconclusive are left out. The source made the active and inactive calls. Calls follow the shape of the dose curve; as a rule, active = well fitted inhibition curve with a large enough effect; inconclusive = small, poorly fitted or top-dose-only effect; inactive = flat fitted curve, though single readings scatter.
API: response.call in active, inactive

State the result this test recorded for `Cc1[nH]c2ccccc2c1CCNCc1ccc(/C=C/C(=O)NO)cc1` .
inactive

State the result this test recorded for `NC(N)=N/N=C/c1ccccc1Cl` .
inactive

State the result this test recorded for `CC(C)CCNC(=O)[C@H](CC(C)C)NC(=O)[C@H]1O[C@@H]1C(=O)O` .
inactive

State the result this test recorded for `O=C(N[C@H]1CCN(C(=O)c2cc(C(F)(F)F)cc(C(F)(F)F)c2)[C@H](Cc2ccc(Cl)cc2)C1)c1ccnc2ccccc12` .
inactive

State the result this test recorded for COc1ccccc1OCCNCC(O)CCOc1cccc2[nH]c3ccccc3c12 (stereo not drawn) .
inactive

State the result this test recorded for `CN(C)C(=O)Nc1cccc(-c2ccc(N(C)C)cc2)c1` .
inactive

State the result this test recorded for CCOC(=O)N1c2ccc(C(F)(F)F)cc2C(N(Cc2cc(C(F)(F)F)cc(C(F)(F)F)c2)C(=O)OC)CC1CC (stereo not drawn) .
inactive

State the result this test recorded for `COc1ccc(C[C@H]2COC(=O)[C@@H]2Cc2ccc(O[C@@H]3O[C@H](CO)[C@@H](O)[C@H](O)[C@H]3O)c(OC)c2)cc1OC` .
inactive

State the result this test recorded for CC(C)(C)Oc1ccc(OCC2Cc3ccccc3CN2C(=O)c2cccc3ccccc23)cc1 (stereo not drawn) .
inactive

State the result this test recorded for `CC(C)(O)c1ccc2c(c1)ncn2-c1cccc(-c2ccccc2C#N)c1` .
inactive

State the result this test recorded for `CC(C)(Cc1nc(-c2ccc(O)cn2)no1)C(=O)NC1=C(C(=O)O)CCCC1` .
inactive

State the result this test recorded for `OC(c1ccc(-c2ccc(CN3CCN(Cc4ccncc4)CC3)cc2)c(F)c1)(C(F)(F)F)C(F)(F)F` .
inactive

State the result this test recorded for `COC(=O)C1=CO[C@@H](O[C@@H]2O[C@H](CO)[C@@H](O)[C@H](O)[C@H]2O)[C@H]2[C@@H]1C=C[C@]21C=C([C@H](C)OC(=O)/C=C/c2ccc(O)cc2)C(=O)O1` .
inactive

State the result this test recorded for `C=CS(=O)(=O)NC1CCN(C(=O)CNc2cc(I)c(Cl)cc2OC)CC1` .
inactive

State the result this test recorded for `Nc1ncnc2c1c(-c1ccc(Oc3ccccc3)cc1)nn2[C@@H]1CCCNC1` .
inactive

State the result this test recorded for `Cn1cc(C2=C(c3coc4ccccc34)C(=O)NC2=O)c2cc(Br)ccc21` .
inactive

State the result this test recorded for `Cc1ccnn1-c1ccc(C(=O)N2CCN(S(=O)(=O)c3ccc(Cl)c(C(F)(F)F)c3)CC2)cc1` .
inactive

State the result this test recorded for CC12CCC3C1C(c1c(cc(O)c(C(=O)c4ccccc4)c1O)O2)C3(C)C (stereo not drawn) .
inactive

State the result this test recorded for `COc1cc(OC)c(NC(=O)c2ccc(Cc3cc4c(cc3C)C(C)(C)CCC4(C)C)o2)c(OC)c1` .
inactive

State the result this test recorded for CC1(S(=O)(=O)O)CC(=O)c2ccccc2C1=O (stereo not drawn) .
active

State the result this test recorded for `CC(C)c1noc(C2CCN(c3ncnc(Nc4ccc(S(C)(=O)=O)cc4F)c3[N+](=O)[O-])CC2)n1` .
inactive

State the result this test recorded for `COCC(=O)NC/C=C/c1ccc2ncnc(Nc3ccc(Oc4ccc(C)nc4)c(C)c3)c2c1` .
inactive

State the result this test recorded for `CC(C)S(=O)(=O)NC[C@H](C)c1ccc(-c2ccc(CCNS(C)(=O)=O)cc2)cc1` .
inactive

State the result this test recorded for CC(=O)OC1[C@H]2[C@@H](C[C@@H](C)[C@@H]3C=CC(=O)[C@@]13C)OC(=O)[C@@H]2C (stereo partly drawn) .
inactive

State the result this test recorded for CC#CCC(C)[C@H](O)/C=C/[C@@H]1[C@H]2C/C(=C/CCCC(=O)O)C[C@H]2C[C@H]1O (stereo partly drawn) .
inactive

State the result this test recorded for O=C1C(Cc2ccc(O)cc2)N2C(=O)CCN(C(=O)NCc3ccccc3)C2CN1Cc1cccc2ccccc12 (stereo not drawn) .
inactive

State the result this test recorded for `COc1ccc(S(=O)(=O)n2cnc3cc(C)c(C)cc32)cc1` .
inactive

State the result this test recorded for `N#Cc1ccc(-c2ccc(S(=O)(=O)Nc3cccc(N)n3)cc2)cc1` .
inactive

Origin of the recorded values: PubChem BioAssay (NCATS)
